Test system: barley powdery mildew fungus (Erysiphe graminis)
experiment notes: Test Example 2: control effect against barley powdery mildew by foliage application
Format: in vivo
protocol conditions: wettable powder diluted to 100 ppm, 10 mL per pot foliage spray on barley; inoculated day after; 7 days after inoculation
Assignment: determine reported evaluation value of control effect (from control value, lesion area percentage) for the given compounds.
Numbers only.

{"compound": "CC(C)CC(C)c1ccccc1N(C(=O)c1cn(C)nc1C(F)F)C(=O)c1snc(Cl)c1Cl (centres unmarked)", "measured on": "barley powdery mildew fungus (Erysiphe graminis)", "val": 5}
{"compound": "Cc1nc(C(F)F)c(C(=O)N(C(=O)c2sc(C)nc2C(F)F)c2ccccc2C(C)CC(C)C)s1 (centres unmarked)", "measured on": "barley powdery mildew fungus (Erysiphe graminis)", "val": 5}
{"compound": "Cc1nc(C(F)F)c(C(=O)N(C(=O)c2cccc3nnsc23)c2cccc3c2C(C)OC3(C)C)s1 (centres unmarked)", "measured on": "barley powdery mildew fungus (Erysiphe graminis)", "val": 4}
{"compound": "Cc1nc(C(F)F)c(C(=O)N(C(=O)c2cccnc2C(F)F)c2ccccc2C(C)CC(C)C)s1 (centres unmarked) [13-20]", "measured on": "barley powdery mildew fungus (Erysiphe graminis)", "val": 4}
{"compound": "CC1CC(C)(C)c2cccc(N(C(=O)c3cn(C)nc3C(F)F)C(=O)c3scnc3C(F)F)c21 (centres unmarked)", "measured on": "barley powdery mildew fungus (Erysiphe graminis)", "val": 4}

Batch request: evaluation value of control effect (from control value, lesion area percentage) for each of the following compounds.
1. Cc1cc(C(=O)N(C(=O)c2cn(C)nc2C(F)F)c2ccccc2C(C)CC(C)C)sn1 (centres unmarked)
2. Cc1nc(C(F)(F)F)c(C(=O)N(C(=O)c2sc(C)nc2C(F)(F)F)c2c(Br)cc(OC(F)(F)F)cc2Br)s1
3. Cc1nc(C(F)F)c(C(=O)N(C(=O)c2snc(Cl)c2Cl)c2ccccc2CCC(C)C)s1
4. Cc1nsc(C(=O)N(C(=O)c2scnc2C(F)F)c2ccccc2C(C)CC(C)C)c1Cl (centres unmarked)
5. Cc1nc(C(F)F)c(C(=O)N(C(=O)c2sc(C)nc2C(F)(F)F)c2cccc3c2C(C)CC3(C)C)s1 (centres unmarked)
6. Cc1nc(C(F)F)c(C(=O)N(C(=O)c2snnc2C)c2ccccc2CCC(C)C)s1

Reply |
1. 4
2. 4
3. 4
4. 4
5. 4
6. 4

---

Consider the following compounds; for each one, report its evaluation value of control effect (from control value, lesion area percentage).
System: barley powdery mildew fungus (Erysiphe graminis)
experiment notes: Test Example 2: control effect against barley powdery mildew by foliage application
Type: in vivo
protocol conditions: wettable powder diluted to 100 ppm, 10 mL per pot foliage spray on barley; inoculated day after; 7 days after inoculation
One number for each entry.

// worked examples, evaluation value of control effect (from control value, lesion area percentage) included
{"compound": "Cc1nnsc1C(=O)N(C(=O)c1cn(C)nc1C(F)(F)F)c1ccsc1C(C)CC(C)C (centres unmarked)", "val": 5}
{"compound": "Cc1nc(C(F)F)c(C(=O)N(C(=O)c2snnc2C)c2cccc3c2C(C)OC3(C)C)s1 (centres unmarked)", "val": 4}
{"compound": "O=C(c1nccnc1C(F)(F)F)N(c1ccccc1-c1ccc(F)c(F)c1)c1snc(Cl)c1Cl", "val": 5}
{"compound": "Cn1cc(C(=O)N(C(=O)c2snc(Cl)c2Cl)c2ccccc2-c2cc(F)c(F)c(F)c2)c(C(F)F)n1", "val": 5}
{"compound": "CC1OC(C)(C)c2cccc(N(C(=O)c3cn(C)nc3C(F)F)C(=O)c3onc(Cl)c3Cl)c21 (centres unmarked)", "val": 4}
{"compound": "Cn1cc(C(=O)N(C(=O)c2snc(Cl)c2Cl)c2ccccc2C2CC2C2CC2)c(C(F)F)n1 (centres unmarked)", "val": 4}
{"compound": "Cc1nc(C(F)(F)F)c(C(=O)N(C(=O)c2cn(C)nc2C(F)F)c2ccccc2C(C)CC(C)C)s1 (centres unmarked)", "val": 5}
{"compound": "Cc1nnsc1C(=O)N(C(=O)c1cccnc1C(F)F)c1ccsc1C(C)CC(C)C (centres unmarked)", "val": 5}

Value sought for every listed compound: evaluation value of control effect (from control value, lesion area percentage).
1. Cc1ncccc1C(=O)N(C(=O)c1snc(Cl)c1Cl)c1ccccc1C(C)CC(C)C (centres unmarked)
2. CC1CC(C)(C)c2cccc(N(C(=O)c3cn(C)nc3C(F)F)C(=O)c3snc(Cl)c3Cl)c21 (centres unmarked)
3. CC(C)CC(C)c1ccccc1N(C(=O)c1cccnc1C(F)F)C(=O)c1onc(Cl)c1Cl (centres unmarked)
4. Cc1nc(C(F)F)c(C(=O)N(C(=O)c2cc(Cl)c(Cl)s2)c2ccccc2C(C)CC(C)C)s1 (centres unmarked)
5. Cc1nc(C(F)F)c(C(=O)N(C(=O)c2snc(Cl)c2Cl)c2cccc3c2C(C)CC3(C)C)s1 (centres unmarked)
6. CC(C)CC(C)c1ccccc1N(C(=O)c1cc(F)nc(F)c1)C(=O)c1cccnc1C(F)F (centres unmarked)
7. CCc1nc(C(F)F)c(C(=O)N(C(=O)c2sc(C)nc2C(F)F)c2ccccc2C(C)CC(C)C)s1 (centres unmarked)
8. CC(C)CC(C)c1ccccc1N(C(=O)c1cc(Cl)c(Cl)s1)C(=O)c1cn(C)nc1C(F)F (centres unmarked)

Reply |
[4, 4, 5, 4, 5, 5, 4, 4]

Per the records, this compound ( Cc1nnsc1C(=O)N(C(=O)c1cccnc1C(F)F)c1ccccc1C(C)CC(C)C (centres unmarked) ) has evaluation value of control effect (from control value, lesion area percentage) equal to 5

---

Test system: barley powdery mildew fungus (Erysiphe graminis)
experiment notes: Test Example 2: control effect against barley powdery mildew by foliage application
Type: in vivo
protocol conditions: wettable powder diluted to 100 ppm, 10 mL per pot foliage spray on barley; inoculated day after; 7 days after inoculation
experimental readout: evaluation value of control effect (from control value, lesion area percentage)
Answers are plain numbers.

Worked cases, answers included:
{"compound": "CC(C)CC(C)c1ccccc1N(C(=O)c1ccccc1C(F)F)C(=O)c1snc(Cl)c1Cl (centres unmarked) [19-2]", "val": 4}
{"compound": "Cc1nc(C(F)F)c(C(=O)N(C(=O)c2snc(Cl)c2Cl)c2ccccc2-c2cc(F)c(F)c(F)c2)s1 [7-68]", "val": 4}
{"compound": "Cc1nc(C(F)F)c(C(=O)N(C(=O)c2sc(C)nc2C(F)F)c2cccc3c2C(C)OC3(C)C)s1 (centres unmarked) [26-78]", "val": 4}
{"compound": "Cc1ncc(C(=O)N(C(=O)c2cc(Cl)no2)c2ccccc2C(C)CC(C)C)s1 (centres unmarked) [7-278]", "val": 4}

Provide each entry's evaluation value of control effect (from control value, lesion area percentage) from the list below.
1. Cc1nc(C(F)F)c(C(=O)N(C(=O)c2snnc2C)c2ccccc2C(C)CC(C)C)s1 (centres unmarked) [7-152]
2. Cc1nnsc1C(=O)N(C(=O)c1cn(C)nc1C(F)F)c1ccccc1-c1cc(F)c(F)c(F)c1 [1-368]
3. Cc1nn(C)c(F)c1C(=O)N(C(=O)c1cc(Cl)nc(Cl)c1)c1ccccc1C(C)CC(C)C (centres unmarked) [1-266]
4. Cn1cc(C(=O)N(C(=O)c2scnc2C(F)F)c2ccccc2-c2cc(F)c(F)c(F)c2)c(C(F)F)n1 [1-370]

Reply |
[5, 4, 4, 4]

---

Tested on: barley powdery mildew fungus (Erysiphe graminis)
experiment notes: Test Example 2: control effect against barley powdery mildew by foliage application
Assay type: in vivo
protocol conditions: wettable powder diluted to 100 ppm, 10 mL per pot foliage spray on barley; inoculated day after; 7 days after inoculation
experimental readout: evaluation value of control effect (from control value, lesion area percentage)
Answers are plain numbers.

These solved cases illustrate the format of a correct answer.
{"compound": "Cc1nc(C(F)F)c(C(=O)N(C(=O)c2scnc2C(F)(F)F)c2ccccc2C(C)CC(C)C)s1 (centres unmarked)", "measured on": "barley powdery mildew fungus (Erysiphe graminis)", "val": 4}
{"compound": "Cc1nnsc1C(=O)N(C(=O)c1cn(C)nc1C(F)F)c1cccc2c1C(C)OC2(C)C (centres unmarked)", "measured on": "barley powdery mildew fungus (Erysiphe graminis)", "val": 4}
{"compound": "CC(C)CC(C)c1ccccc1N(C(=O)c1snc(Cl)c1Cl)C(=O)c1c(C(F)F)nn(C)c1Cl (centres unmarked)", "measured on": "barley powdery mildew fungus (Erysiphe graminis)", "val": 4}
{"compound": "Cc1nn(C)c(C)c1C(=O)N(C(=O)c1snc(Cl)c1Cl)c1ccccc1C(C)CC(C)C (centres unmarked)", "measured on": "barley powdery mildew fungus (Erysiphe graminis)", "val": 4}
{"compound": "CC(C)CC(C)c1ccccc1N(C(=O)c1cc(F)nc(F)c1)C(=O)c1cn(C)nc1C(F)F (centres unmarked)", "measured on": "barley powdery mildew fungus (Erysiphe graminis)", "val": 5}

Fill in evaluation value of control effect (from control value, lesion area percentage) for each of the 3 compounds listed.
1. Cc1nc(C(F)F)c(C(=O)N(C(=O)c2snc(Cl)c2Cl)c2ccsc2C(C)CC(C)C)s1 (centres unmarked)
2. Cc1nc(C(F)F)c(C(=O)N(C(=O)c2snc(Cl)c2Cl)c2c(Br)cc(OC(F)(F)F)cc2Br)s1
3. CC1OC(C)(C)c2cccc(N(C(=O)c3cccnc3C(F)F)C(=O)c3snc(Cl)c3Cl)c21 (centres unmarked)

Reply |
1: 5; 2: 4; 3: 4
